system: KRAS G12C mutant (Homo sapiens, UniProt P01116, G12C)
Construct: 50 μM G12C K-Ras4B (1-169) protein and 1 mM BODIPY® FL GDP; His tag (N, cleaved yes); made in house; host or cells: E. coli BL21 (DE3)
Sequence (P01116 1-169 isoform P01116-2 G12C): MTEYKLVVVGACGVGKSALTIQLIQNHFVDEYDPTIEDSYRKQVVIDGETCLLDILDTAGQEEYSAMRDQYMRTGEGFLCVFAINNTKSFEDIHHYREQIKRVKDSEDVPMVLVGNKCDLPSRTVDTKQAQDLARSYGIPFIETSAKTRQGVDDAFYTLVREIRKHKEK
assay.info: Inhibition of SOS1-mediated nucleotide (GDP-GTP) exchange reaction of KRAS G12C mutant, BODIPY FL GDP fluorescence
Format: biochemical
test.settings: preincubated 25° C. 4 hours with 25 nM KRAS G12C bound with BODIPY FL GDP; SOS1 100 nM, GppNHp 1 μM, 30 minutes
readout.type: IC50 (nM)

Below, 4 molecules whose answers are already recorded.
C=CC(=O)N1CC(NC(=O)c2cnc(CNc3cc(C(C)(C)C)c(Cl)cc3O)n2CCOC)C1
13
C=CC(=O)N1CC(NC(=O)c2cnc(CNc3cc(C(C)(C)C)cc(C)c3O)n2C)C1
701
C=CC(=O)N1CC(NC(=O)c2cnc(C(C)Nc3cc(C(C)(C)C)c(Cl)cc3O)n2C)C1 (centres unmarked)
104
C=CC(=O)N1CC(NC(=O)c2c(C)nc(CNc3cc(C(C)(C)C)c(Cl)cc3O)n2CC)C1
8

I. C=CC(=O)N1CC(NC(=O)c2ccc(CNc3cc(C(C)(C)C)c(Cl)cc3O)s2)C1
II. C=CC(=O)N1CC(NC(=O)c2cnc(CNc3cc(C(C)(C)C)c(Cl)cc3O)o2)C1
III. C=CC(=O)N1CC(NC(=O)c2c(C)nc(CNc3cc(C(C)(C)C)c(Cl)cc3O)n2C(C)C)C1
IV. C=CC(=O)N1CC(NC(=O)c2c(C)nc(C(C)Nc3cc(C(C)(C)C)c(Cl)cc3O)n2C)C1 (centres unmarked)
Data request: Returns the items ordered by IC50, from maximum to minimum. Returns: the labels listed in the requested order.
Data returned: I, IV, II, III
(I: 1510 nM, IV: 225 nM, II: 123 nM, III: 11 nM)

###

System: NCI-H358 cells
assay.info: Growth inhibition of KRAS-G12C mutant cell line NCI-H358 (CellTiter-Glo 2.0)
Assay type: cell-based
test.settings: Homo sapiens, 72 h; NCI-H358, 3-day culture with compound
readout.type: IC50 (nM)

Below, 3 molecules whose answers are already recorded.
C=CC(=O)N1CC(NC(=O)c2sc(CNc3cc(C(C)(C)C)c(Cl)cc3O)nc2C)C1
658
C=CC(=O)N1CC(NC(=O)c2cnc(Cc3cc(C(C)(C)C)c(Cl)cc3O)n2C)C1
683
C=CC(=O)N1CC(NC(=O)c2c(C)nc(CNc3cc(C(C)(C)C)c(Cl)cc3O)n2C)C1
112

P. C=CC(=O)N1CC(NC(=O)c2c(C)nc(CNc3cc(C(C)(C)C)c(Cl)cc3O)n2CCCC)C1
Q. C=CC(=O)N1CC(NC(=O)c2c(C)nc(CNc3cc(C(C)(C)C)c(Cl)cc3O)n2Cc2ccccc2)C1
Data request: Which has the smaller recorded IC50, P or Q ? Refer to your chosen item by its label in the answer.
Data returned: P

1. C=CC(=O)N1CC(N(C)C(=O)c2ccc(CNc3cc(C(C)(C)C)c(Cl)cc3O)o2)C1
2. C=CC(=O)N1CC(NC(=O)c2c(C)nc(CNc3cc(C(C)(C)C)c(Cl)cc3O)n2C2CCCC2)C1
Data request: Which has the smaller recorded IC50, 1 or 2 ? Refer to your chosen item by its label in the answer.
Data returned: 2
(2: 576 nM, 1: 1170 nM)
